Hello, the source for this data is PubChem BioAssay (NCATS), in case you need it.

Assay: Primary qHTS for inhibitors of nuclear receptor binding SET domain protein 2 (NSD2) in an isogenic RCH-ACV NSD2 p.E1099K mutant (9B) (AID 1645876); further: on the % scale 0 is the no-effect control and ±100 the full control effect; nearly all actives have a fitted effect of over 70% in size
Settings: RCH-ACV (leukaemia line) NSD2 E1099K (9B) viability, CellTiter-Glo, 72 h; series mostly up to 44.9 µM
Records with an inconclusive call do not appear. Active and inactive are the calls of the source. The call rests on the fitted dose curve; in most records, active means well fitted inhibition curve with a large enough effect; inconclusive means small, poorly fitted or top-dose-only effect; inactive means flat fitted curve, though single readings scatter.
property_label: activity change, negative = viability loss

These solved cases illustrate the format of a correct answer.
# compound, measured_result
measured = [
    ("C/C=C(\\C)C(=O)OCC1OC(OC2OC(COC(=O)/C(C)=C/C)C(OC3OC(CO)C(OC(=O)/C(C)=C/C)C(OC(=O)/C(C)=C/C)C3O)C(O)C2O)C(O)C(O)C1OC1OC(CO)C(OC(=O)/C(C)=C/C)C(OC(=O)/C(C)=C/C)C1O (stereo not given)", "-4.2% [at 9.23 µM] (inactive)"),
    ("C[C@@H]1O[C@@H](O[C@H]2[C@H](O)[C@@H](O)[C@H](OC[C@H]3O[C@@H](OC(=O)[C@]45CCC(C)(C)C[C@H]4C4=CCC6[C@@]7(C)CC[C@H](O[C@@H]8OC[C@H](O)[C@H](O[C@@H]9O[C@H](CO)[C@@H](O)[C@H](O)[C@H]9O)[C@H]8O)[C@@](C)(CO)C7CC[C@@]6(C)[C@]4(C)CC5)[C@H](O)[C@@H](O)[C@@H]3O)O[C@@H]2CO)[C@H](O)[C@H](O)[C@H]1O (stereo not given in full)", "0.607% [at 9.23 µM] (inactive)"),
    ("C=C1CC[C@@H]2[C@@](C)(CO[C@@H]3O[C@H](CO)C(O)[C@H](O)C3O)[C@H](O)CC[C@@]2(C)[C@@H]1CC/C(C)=C/CO (stereo not given in full)", "3.18% [at 9.23 µM] (inactive)"),
    ("C[C@H](N)C(=O)N[C@@H](Cc1ccc(O)cc1)C(=O)N1CCC[C@H]1C(=O)NCC(=O)N[C@@H](CCCCN)C(=O)N[C@@H](Cc1ccccc1)C(N)=O", "0.961% [at 9.23 µM] (inactive)"),
    ("CN(C)C(=O)NC1CCC(CCN2CCN(c3cccc(Cl)c3Cl)CC2)CC1 (stereo not given)", "3.61% [at 9.23 µM] (inactive)"),
    ("CC1(C)CC[C@]2(C(=O)O[C@@H]3O[C@H](CO)[C@@H](O)[C@H](O)[C@H]3O)CC[C@]3(C)C(=CCC4[C@@]5(C)CC[C@H](O[C@@H]6O[C@H](C(=O)O)[C@@H](O)[C@H](O[C@@H]7O[C@H](CO)[C@H](O)[C@H](O)[C@H]7O)[C@H]6O)C(C)(C)C5CC[C@]43C)C2C1 (stereo not given in full)", "-8.36% [at 9.23 µM] (inactive)"),
    ("CC(C)C[C@H](CC(=O)NO)C(=O)N[C@H](C(=O)N[C@@H](C)C(=O)NCCN)C(C)(C)C", "-8.25% [at 9.23 µM] (inactive)"),
    ("COCC1OC(OC(C)(C)C2CCC3(C)C=C(C4CCC5C4(C)CC(O)C4OC(C(C)(C)OC6OC(CO)C(O)C(O)C6NC(C)=O)CCC45C)CCC3O2)C(NC(C)=O)C(O)C1O (stereo not given)", "1.46% [at 9.23 µM] (inactive)"),
    ("CC1OC(OCC2OC(OC3CCC4(C)C(CCC5(C)C4CC=C4C6CC(C)(C)CCC6(C(=O)OC6OC(CO)C(O)C(O)C6O)CCC45C)C3(C)CO)C(O)C(O)C2O)C(O)C(O)C1O (stereo not given)", "3.81% [at 9.23 µM] (inactive)"),
]

Consider now this further compound.
Using the record for CC1OC(OC2C(CO)OC(OCC3OC(OC(=O)C45CCC(C)(C)CC4C4=CCC6C7(C)CCC(OC8OC(CO)C(O)C(OC9OC(CO)C(O)C(O)C9O)C8O)C(C)(C)C7CCC6(C)C4(C)CC5)C(O)C(O)C3O)C(O)C2O)C(O)C(O)C1OC1OC(CO)C(O)C(O)C1O (stereo not given) , state its measured activity change, negative = viability loss.
-0.174% [at 9.23 µM] (inactive)

====

Experiment: qHTS to identify inhibitors of the type 1 interferon - major histocompatibility complex class I in skeletal muscle: primary screen against the NCATS Mechanism Interrogation Plate v5.0 (MIPE) Libary (AID 1347411); further: nearly all actives have a fitted effect of over 65% in size
Conditions: iHSKM cells + IFN-b, HiBiT-tagged MHC-I luminescence, 24 h; series mostly up to 45.8 µM
Results filed as inconclusive are left out. Calls of active or inactive are those of the source. Calls follow the shape of the dose curve; as a rule, active = well fitted inhibition curve with a large enough effect; inconclusive = small, poorly fitted or top-dose-only effect; inactive = no such curve, though single readings can be large or run the other way.
Outcome field: choose from 1.0 for active, 0.0 for inactive

# compound, class_assignment
data = [
    ("Cc1[nH]nc(C(F)(F)F)c1Cc1sc2c(c1C(=O)N1C[C@](C)(O)CO1)c(=O)n(C)c(=O)n2C(C)C", 0.0),
    ("CC(C)[C@@H](CS(=O)(=O)C(C)C)N1C(=O)[C@@](C)(CC(=O)O)C[C@H](c2cccc(Cl)c2)[C@H]1c1ccc(Cl)cc1", 0.0),
    ("CC(C)c1c2cc(-c3ccnc(NC4CCC(NC5CCOCC5)CC4)n3)ccc2nn1C (centres undefined)", 1.0),
    ("COc1cc2ncnc(Nc3ccc(F)c(Cl)c3)c2cc1NC(=O)/C=C/CN1CCCCC1", 1.0),
    ("C[C@H](Nc1ncnc2nc[nH]c12)c1cc2ccc(F)cc2nc1-c1ccccn1", 0.0),
]

Would you mind telling me which call this test gave `C[C@H]1[C@H](O)O[C@@H]2O[C@@]3(C)CC[C@H]4[C@H](C)CC[C@@H]1[C@@]24OO3` ?
0.0

# outcome recorded in this test, key = `O=C(O)c1ccc(CN2CCC(CN[C@@H]3C[C@H]3c3ccccc3)CC2)cc1`
0.0

GET /call?item= `Cc1ccc(S(=O)(=O)Cc2nc(-c3ccc(C(=O)NCc4cccnc4)cc3)oc2C)cc1` returns the recorded outcome of this test.
0.0

For `CCN1CCN(Cc2ccc(NC(=O)Nc3ccc(Oc4cc(NC)ncn4)cc3)cc2C(F)(F)F)CC1` , which call appears in the assay record?
1.0

====

Tested on: SKOV3
Assay: Primary qHTS to identify gynecologic anti-cancer compounds using libraries of approved drugs and bioactive compounds (AID 1345084); further: nearly all actives have a fitted effect of over 55% in size
Settings: Gynecologic cancer cell panel viability, ATPlite luminescence, 48 h; series mostly up to 57.5 µM
Inconclusive results are not listed. Activity calls are given as the source filed them. Calls follow the shape of the dose curve; as a rule, active = well fitted cell-killing curve with a large enough effect; inconclusive = small, poorly fitted or top-dose-only effect, or effect the other way; inactive = flat fitted curve, though single readings scatter. Where a SMILES comes first, the peptide text is derived from it. [ ]: non-standard residue; d: D form. ξ: configuration not given here. ξLac(3-iPr) = CC(C)CC(O)C(=O)O; NMeV = CN[CH](C(=O)O)C(C)C; βAla = NCCC(=O)O
Hi! Could you answer with just one of these? active, inactive

Past entries and their recorded results:
# compound, tested_system, class_assignment
data = [
    ("C[C@@H]1CC[C@@]2(OC1)O[C@H]1C[C@H]3[C@@H]4CC=C5C[C@@H](O)CC[C@]5(C)[C@H]4CC[C@]3(C)[C@H]1[C@@H]2C", "SKOV3", "inactive"),
    ("CC(C)CC1OC(=O)C2CCCN2C(=O)CCNC(=O)C(Cc2ccccc2)NC(=O)C(C(C)C)N(C)C(=O)C(C(C)C)N(C)C1=O (configuration not stated) (cyclo([ξLac(3-iPr)][NMeV][NMeV]F[βAla]P); configuration not given here)", "SKOV3", "inactive"),
]

Lab log entry: CC/C=C\CC1C(=O)C=CC1(CCCCCCCC(=O)O)OC(C)=O (configuration not stated) — outcome as called in the assay?
inactive

Give the logged outcome of this assay for the following compound: NC(=O)c1csc(C2OC(CO)C(O)C2O)n1 (configuration not stated)
inactive

# lookup: test call for `COc1cc2c(cc1O)CC[C@H]1[C@@H]2CC[C@]2(C)[C@H](O)CC[C@@H]12`
active

What is the recorded call for this compound in the test? `C=C1CC[C@@H]2[C@](C)(CO[C@@H]3O[C@H](CO)[C@@H](O)[C@H](O)[C@H]3O)[C@H](O)CC[C@@]2(C)[C@@H]1C/C=C1/C(=O)OC[C@H]1O`
inactive

Please state the recorded outcome for this compound: `C=C[C@H]1[C@H](O[C@@H]2O[C@H](CO)[C@@H](O)[C@H](O)[C@H]2O)OC=C(C(=O)OC)[C@H]1CCOC(=O)c1cc(O)c(O)c(O)c1`
inactive

====

Tested on: HeLa
Test: Primary qHTS to identify gynecologic anti-cancer compounds using libraries of approved drugs and bioactive compounds (AID 1345084); further: nearly all actives have a fitted effect of over 55% in size
Conditions: Gynecologic cancer cell panel viability, ATPlite luminescence, 48 h; series mostly up to 57.5 µM
Results filed as inconclusive are left out. Calls of active or inactive are those of the source. Calls come from the whole dose curve; as a rule, active = well fitted cell-killing curve with a large enough effect; inconclusive = small, poorly fitted or top-dose-only effect, or effect the other way; inactive = flat fitted curve, though single readings scatter.
Parameter call: string, one of 1 (yes) = active, 0 (no) = inactive

Example entries and their recorded answers appear below.
# compound, tested_system, class_assignment
measured = [
    ("COc1cc(O)c([C@@H](CC(=O)N2CC(C)CC(C)C2)c2ccc3c(c2)OCO3)c(OC)c1 (stereo not given in full)", "HeLa", "0 (no)"),
    ("Nc1nc2c(ncn2[C@@H]2O[C@H](CO)[C@@H](O)[C@H]2O)c(=O)[nH]1", "HeLa", "0 (no)"),
    ("CC(=O)c1c(O)cc(O[C@@H]2O[C@H](CO)[C@@H](O)[C@H](O)[C@H]2O)cc1O", "HeLa", "0 (no)"),
    ("CC(C)NCC(C(=O)N1CCN(c2ncnc3c2C(C)CC3O)CC1)c1ccc(Cl)cc1 (stereo not given)", "HeLa", "0 (no)"),
]

Could you check what this test reported for `C[C@H]1[C@H](O)O[C@@H]2O[C@@]3(C)CC[C@H]4[C@H](C)CC[C@@H]1[C@@]24OO3` ?
1 (yes)
